Origin of measurements: BigSolDB 2.1

# recorded conditions: in ethyl acetate, 313.15 K

given smiles	solubility (mole fraction)
CC(=O)c1c(C)c2cnc(Nc3ccc(N4CCNCC4)cn3)nc2n(C2CCCC2)c1=O	3.08e-05

###

# recorded conditions: in toluene, 313.15 K

given smiles	solubility (mole fraction)
CC(=O)c1c(C)c2cnc(Nc3ccc(N4CCNCC4)cn3)nc2n(C2CCCC2)c1=O	9.44e-05

###

# recorded conditions: in ethanol, 308.15 K

given smiles	solubility (mole fraction)
CC(=O)c1c(C)c2cnc(Nc3ccc(N4CCNCC4)cn3)nc2n(C2CCCC2)c1=O	3.61e-05

###

# recorded conditions: in m-xylene, 323.15 K
property measured: solubility (mole fraction)

given smiles	property measured	value measured
CC(=O)c1c(C)c2cnc(Nc3ccc(N4CCNCC4)cn3)nc2n(C2CCCC2)c1=O	solubility (mole fraction)	0.000119

###

# recorded conditions: in anisole, 298.15 K

given smiles	solubility (mole fraction)
CC(=O)c1c(C)c2cnc(Nc3ccc(N4CCNCC4)cn3)nc2n(C2CCCC2)c1=O	1.41e-05

###

# recorded conditions: in toluene, 293.15 K
property measured: solubility (mole fraction)

given smiles	value measured
CC(=O)c1c(C)c2cnc(Nc3ccc(N4CCNCC4)cn3)nc2n(C2CCCC2)c1=O	4.72e-05

###

# recorded conditions: in methanol, 328.15 K
property measured: solubility (mole fraction)

given smiles	value measured
CC(=O)c1c(C)c2cnc(Nc3ccc(N4CCNCC4)cn3)nc2n(C2CCCC2)c1=O	7.15e-05

###

# recorded conditions: in DMF, 323.15 K
property measured: solubility (mole fraction)

given smiles	property measured	value measured
CC(=O)c1c(C)c2cnc(Nc3ccc(N4CCNCC4)cn3)nc2n(C2CCCC2)c1=O	solubility (mole fraction)	0.000246

###

# recorded conditions: in pyridine, 323.15 K

given smiles	solubility (mole fraction)
CC(=O)c1c(C)c2cnc(Nc3ccc(N4CCNCC4)cn3)nc2n(C2CCCC2)c1=O	0.000196

###

# recorded conditions: in THF, 303.15 K
property measured: solubility (mole fraction)

given smiles	property measured	value measured
CC(=O)c1c(C)c2cnc(Nc3ccc(N4CCNCC4)cn3)nc2n(C2CCCC2)c1=O	solubility (mole fraction)	0.000143

###

# recorded conditions: in water, 328.15 K
property measured: solubility (mole fraction)

given smiles	value measured
CC(=O)c1c(C)c2cnc(Nc3ccc(N4CCNCC4)cn3)nc2n(C2CCCC2)c1=O	3.63e-05

###

# recorded conditions: in chlorobenzene, 298.15 K

given smiles	solubility (mole fraction)
CC(=O)c1c(C)c2cnc(Nc3ccc(N4CCNCC4)cn3)nc2n(C2CCCC2)c1=O	5.28e-05

###

# recorded conditions: in ethyl acetate, 328.15 K
property measured: solubility (mole fraction)

given smiles	property measured	value measured
CC(=O)c1c(C)c2cnc(Nc3ccc(N4CCNCC4)cn3)nc2n(C2CCCC2)c1=O	solubility (mole fraction)	5.13e-05

###

# recorded conditions: in o-xylene, 298.15 K
property measured: solubility (mole fraction)

given smiles	property measured	value measured
CC(=O)c1c(C)c2cnc(Nc3ccc(N4CCNCC4)cn3)nc2n(C2CCCC2)c1=O	solubility (mole fraction)	3.62e-05

###

# recorded conditions: in pyridine, 313.15 K

given smiles	solubility (mole fraction)
CC(=O)c1c(C)c2cnc(Nc3ccc(N4CCNCC4)cn3)nc2n(C2CCCC2)c1=O	0.000159

###

# recorded conditions: in toluene, 333.15 K

given smiles	solubility (mole fraction)
CC(=O)c1c(C)c2cnc(Nc3ccc(N4CCNCC4)cn3)nc2n(C2CCCC2)c1=O	0.000178

###

# recorded conditions: in anisole, 323.15 K
property measured: solubility (mole fraction)

given smiles	value measured
CC(=O)c1c(C)c2cnc(Nc3ccc(N4CCNCC4)cn3)nc2n(C2CCCC2)c1=O	1.98e-05

###

# recorded conditions: in o-xylene, 308.15 K

given smiles	solubility (mole fraction)
CC(=O)c1c(C)c2cnc(Nc3ccc(N4CCNCC4)cn3)nc2n(C2CCCC2)c1=O	4.88e-05

###

# recorded conditions: in pyridine, 308.15 K

given smiles	solubility (mole fraction)
CC(=O)c1c(C)c2cnc(Nc3ccc(N4CCNCC4)cn3)nc2n(C2CCCC2)c1=O	0.000142

###

# recorded conditions: in ethanol, 318.15 K
property measured: solubility (mole fraction)

given smiles	property measured	value measured
CC(=O)c1c(C)c2cnc(Nc3ccc(N4CCNCC4)cn3)nc2n(C2CCCC2)c1=O	solubility (mole fraction)	4.81e-05

###

# recorded conditions: in water, 333.15 K
property measured: solubility (mole fraction)

given smiles	value measured
CC(=O)c1c(C)c2cnc(Nc3ccc(N4CCNCC4)cn3)nc2n(C2CCCC2)c1=O	4.34e-05

###

# recorded conditions: in chlorobenzene, 293.15 K

given smiles	solubility (mole fraction)
CC(=O)c1c(C)c2cnc(Nc3ccc(N4CCNCC4)cn3)nc2n(C2CCCC2)c1=O	3.96e-05

###

# recorded conditions: in water, 318.15 K

given smiles	solubility (mole fraction)
CC(=O)c1c(C)c2cnc(Nc3ccc(N4CCNCC4)cn3)nc2n(C2CCCC2)c1=O	2.52e-05

###

# recorded conditions: in methanol, 298.15 K
property measured: solubility (mole fraction)

given smiles	value measured
CC(=O)c1c(C)c2cnc(Nc3ccc(N4CCNCC4)cn3)nc2n(C2CCCC2)c1=O	1.43e-05

###

# recorded conditions: in pyridine, 293.15 K

given smiles	solubility (mole fraction)
CC(=O)c1c(C)c2cnc(Nc3ccc(N4CCNCC4)cn3)nc2n(C2CCCC2)c1=O	9.37e-05

###

# recorded conditions: in DMSO, 333.15 K

given smiles	solubility (mole fraction)
CC(=O)c1c(C)c2cnc(Nc3ccc(N4CCNCC4)cn3)nc2n(C2CCCC2)c1=O	0.000302

###

# recorded conditions: in ethanol, 303.15 K
property measured: solubility (mole fraction)

given smiles	property measured	value measured
CC(=O)c1c(C)c2cnc(Nc3ccc(N4CCNCC4)cn3)nc2n(C2CCCC2)c1=O	solubility (mole fraction)	3.03e-05

###

# recorded conditions: in DMF, 328.15 K

given smiles	solubility (mole fraction)
CC(=O)c1c(C)c2cnc(Nc3ccc(N4CCNCC4)cn3)nc2n(C2CCCC2)c1=O	0.000293

###

# recorded conditions: in water, 308.15 K
property measured: solubility (mole fraction)

given smiles	value measured
CC(=O)c1c(C)c2cnc(Nc3ccc(N4CCNCC4)cn3)nc2n(C2CCCC2)c1=O	1.7e-05

###

# recorded conditions: in DMSO, 318.15 K

given smiles	solubility (mole fraction)
CC(=O)c1c(C)c2cnc(Nc3ccc(N4CCNCC4)cn3)nc2n(C2CCCC2)c1=O	0.000172

###

# recorded conditions: in THF, 318.15 K
property measured: solubility (mole fraction)

given smiles	property measured	value measured
CC(=O)c1c(C)c2cnc(Nc3ccc(N4CCNCC4)cn3)nc2n(C2CCCC2)c1=O	solubility (mole fraction)	0.000329

###

# recorded conditions: in o-xylene, 323.15 K

given smiles	solubility (mole fraction)
CC(=O)c1c(C)c2cnc(Nc3ccc(N4CCNCC4)cn3)nc2n(C2CCCC2)c1=O	7.18e-05

###

# recorded conditions: in acetone, 308.15 K

given smiles	solubility (mole fraction)
CC(=O)c1c(C)c2cnc(Nc3ccc(N4CCNCC4)cn3)nc2n(C2CCCC2)c1=O	0.000111

###

# recorded conditions: in m-xylene, 308.15 K

given smiles	solubility (mole fraction)
CC(=O)c1c(C)c2cnc(Nc3ccc(N4CCNCC4)cn3)nc2n(C2CCCC2)c1=O	6.44e-05

###

# recorded conditions: in o-xylene, 318.15 K

given smiles	solubility (mole fraction)
CC(=O)c1c(C)c2cnc(Nc3ccc(N4CCNCC4)cn3)nc2n(C2CCCC2)c1=O	6.38e-05

###

# recorded conditions: in acetone, 293.15 K

given smiles	solubility (mole fraction)
CC(=O)c1c(C)c2cnc(Nc3ccc(N4CCNCC4)cn3)nc2n(C2CCCC2)c1=O	5.73e-05

###

# recorded conditions: in m-xylene, 318.15 K

given smiles	solubility (mole fraction)
CC(=O)c1c(C)c2cnc(Nc3ccc(N4CCNCC4)cn3)nc2n(C2CCCC2)c1=O	9.8e-05

###

# recorded conditions: in DMF, 298.15 K
property measured: solubility (mole fraction)

given smiles	property measured	value measured
CC(=O)c1c(C)c2cnc(Nc3ccc(N4CCNCC4)cn3)nc2n(C2CCCC2)c1=O	solubility (mole fraction)	8.25e-05

###

# recorded conditions: in methanol, 318.15 K
property measured: solubility (mole fraction)

given smiles	property measured	value measured
CC(=O)c1c(C)c2cnc(Nc3ccc(N4CCNCC4)cn3)nc2n(C2CCCC2)c1=O	solubility (mole fraction)	4.52e-05

###

# recorded conditions: in THF, 333.15 K
property measured: solubility (mole fraction)

given smiles	property measured	value measured
CC(=O)c1c(C)c2cnc(Nc3ccc(N4CCNCC4)cn3)nc2n(C2CCCC2)c1=O	solubility (mole fraction)	0.000696

###

# recorded conditions: in toluene, 308.15 K

given smiles	solubility (mole fraction)
CC(=O)c1c(C)c2cnc(Nc3ccc(N4CCNCC4)cn3)nc2n(C2CCCC2)c1=O	8.01e-05
